# system-name: CYP1A2 (Homo sapiens, UniProt P05177)
# Sequence (P05177 whole entry): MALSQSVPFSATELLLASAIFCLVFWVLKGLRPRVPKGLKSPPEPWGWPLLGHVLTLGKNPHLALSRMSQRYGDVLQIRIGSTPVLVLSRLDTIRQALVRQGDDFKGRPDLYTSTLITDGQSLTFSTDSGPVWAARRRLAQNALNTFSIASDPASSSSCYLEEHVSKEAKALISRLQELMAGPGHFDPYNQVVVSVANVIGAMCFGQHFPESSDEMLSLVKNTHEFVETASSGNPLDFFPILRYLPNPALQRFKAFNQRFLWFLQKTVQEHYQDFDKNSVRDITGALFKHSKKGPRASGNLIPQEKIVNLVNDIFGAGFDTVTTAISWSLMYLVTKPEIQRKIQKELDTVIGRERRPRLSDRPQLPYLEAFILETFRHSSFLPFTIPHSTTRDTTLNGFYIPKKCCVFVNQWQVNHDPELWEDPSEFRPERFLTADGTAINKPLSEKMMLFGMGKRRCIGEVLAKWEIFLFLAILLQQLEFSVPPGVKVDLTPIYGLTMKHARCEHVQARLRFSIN
# assay-overview: Inhibition of CYP1A2 at 2 uM assessed by effect on rate of oxidation of phenacetin O-deethylation upon incubation with human liver microsomes
# Type: ADME, Microsome
# test-conditions: probe phenacetin (O-deethylation)
readout: inhibition at 2 µM (%)
Hi! Could you send only the number? It should be in %, unit omitted.

## Input Determine its reported inhibition at 2 µM: C[C@@H]1CCCN1CCc1cc2cc(-c3ccc(C#N)cc3)ccc2o1
## Output 0
